- Tested on: Xanthomonas vesicatoria DSM 50861
Would you mind telling me the reported MIC of each entry?
Numbers only, in µM.

| structure.string | assayed.target | recorded.number |
| --- | --- | --- |
| CC(C)C[C@H](NC(=O)[C@H](C)NC(=O)[C@H](CCCN=C(N)N)NC(=O)[C@H](CCCCN)NC(=O)[C@H](CC(C)C)NC(=O)[C@H](C)NC(=O)[C@H](CCCN=C(N)N)NC(=O)[C@H](C)NC(=O)[C@H](C)NC(=O)[C@H](CCCCN)NC(=O)[C@H](CCCCN)NC(=O)[C@@H](N)CCCCN)C(N)=O | Xanthomonas vesicatoria DSM 50861 | 29.5 |
| CC(C)C[C@H](NC(=O)[C@H](CC(C)C)NC(=O)[C@H](CCCN=C(N)N)NC(=O)[C@H](CCCCN)NC(=O)[C@H](CC(C)C)NC(=O)[C@H](CC(C)C)NC(=O)[C@H](CCCCN)NC(=O)[C@H](CCCCN)NC(=O)[C@H](CCCN=C(N)N)NC(=O)[C@H](CCCCN)NC(=O)[C@H](CCCCN)NC(=O)[C@@H](N)CCCN=C(N)N)C(N)=O | Xanthomonas vesicatoria DSM 50861 | 3.16 |

Here's the next entry for you.
**Q:** Under Xanthomonas vesicatoria DSM 50861: MIC value of "CC(C)C[C@H](NC(=O)[C@H](C)NC(=O)[C@H](CCCN=C(N)N)NC(=O)[C@H](CCCN=C(N)N)NC(=O)[C@H](C)NC(=O)[C@H](Cc1ccccc1)NC(=O)[C@H](CCCN=C(N)N)NC(=O)[C@@H](N)CC(C)C)C(=O)N[C@@H](CCCN=C(N)N)C(=O)N[C@@H](CCCN=C(N)N)C(=O)N[C@@H](CC(C)C)C(=O)N[C@@H](Cc1ccccc1)C(N)=O" ?
**A:** 0.635
